The measured values listed here are drawn from the RNAGym collection of RNA variant scans (doi:10.1126/science.aae0568).

B1: tRNA (parent)
chain: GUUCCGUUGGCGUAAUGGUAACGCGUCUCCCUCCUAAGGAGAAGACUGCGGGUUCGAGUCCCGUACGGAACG

# Variants of: B1
# experimental details: yeast fitness relative to wild type (ratio to wild type); higher = fitter; tRNA-Arg(CCU), competitive growth, 37 C, YPD
This sample holds only a part of the variants without activity.
Binary call on yeast fitness: class 1 from 0.6 upward, class 0 beneath that.

variant id: C11G A40U A45U A69U
category label: class 0
//
variant id: U16G G25A U28G C34U G63C
category label: class 0
//
variant id: C11G C31G C55G C60A
category label: class 0
//
variant id: U28A C29G A36C
category label: class 0
//
variant id: U19C C22U U32G C34U A40G A57U A70U
category label: class 0
//
variant id: C4A G17A
category label: class 1
//
variant id: C5U U35G U47A G48A A65U
category label: class 0
//
variant id: C4G C5U C11U
category label: class 0
//
variant id: A21G A42C G50A
category label: class 1
//
variant id: A14G U19A C34U C66U
category label: class 0
//
variant id: U19C G50A C55A A65U
category label: class 0
//
variant id: U8A G12A A20C G56C U59A
category label: class 0
//
variant id: G6A C11U U13C A43G G67A
category label: class 0
//
variant id: U2A A70U
category label: class 1
//
variant id: C29G C34G C60G
category label: class 0
//
variant id: C24A A36G A42G A43G G48A
category label: class 0
//
variant id: G18C A21G G23A A43C
category label: class 0
//
variant id: U13G A20G U53G C66U
category label: class 0
//
variant id: U2C G23A G38A G56C C61U G67A
category label: class 0
//
variant id: U13C G58C
category label: class 1
//
variant id: C5U C55G A69U
category label: class 0
//
variant id: C22A C46U
category label: class 1
//
variant id: C5G U28A
category label: class 1
//
variant id: C5U C11A A21G G23C U64A
category label: class 0
//
variant id: C49A G63A
category label: class 0
//
variant id: C24G G25A
category label: class 1
//
variant id: C29G C33G U35G G44A A57G C66U A69U
category label: class 0
//
variant id: C24G A40G
category label: class 1
//
variant id: C49A C61U C62A G67C
category label: class 0
//
variant id: C4G C5G C31A U35C
category label: class 0
//
variant id: C11A A43G A65C
category label: class 0
//
variant id: G10A U54G
category label: class 0
//
variant id: C5G U28G C31U G51A U54A U59A
category label: class 0
//
variant id: U8C A15C A45C
category label: class 1
//
variant id: G6A A15C C27A C61G U64C A70U
category label: class 0
//
variant id: U28A A37G
category label: class 1
//
variant id: C4U U7C C29G C49A
category label: class 0
//
variant id: A14G A36U C46A G51A
category label: class 0
//
variant id: C27U C34G G50A G68C
category label: class 0
//
variant id: G12C C31U G50A
category label: class 1
//
variant id: A21U A43G G44C
category label: class 0
//
variant id: C33G A43G U59A
category label: class 0
//
variant id: A15U C34A
category label: class 1
//
variant id: C4G C11A U19C G23C U47C A70U
category label: class 0
//
variant id: C5U A14G U26C C30U A42C C61G
category label: class 0
//
variant id: U7A G17C G51A
category label: class 0
//
variant id: A20U A36G A70U
category label: class 1
//
variant id: G12C A15C U19A C34U C49A A65U
category label: class 0
//
variant id: C5A G12A A37G A43C C55G G68A
category label: class 0
//
variant id: U32A A43G U64G
category label: class 0
//
variant id: U19C A42U
category label: class 1
//
variant id: A14G A40G C46U
category label: class 0
//
variant id: A15U C22U A70C
category label: class 0
//
variant id: C5G C24G C30G C31U U35A A36U G44A G63C
category label: class 1
//
variant id: C4U U28G
category label: class 1
//
variant id: G23C A37G
category label: class 0
//
variant id: A21U C27G C33G A69U
category label: class 0
//
variant id: U2C G12C A14G C29U U59G G63C
category label: class 0
//
variant id: C27A G58C U64G
category label: class 0
//
variant id: G51A C60U G67A
category label: class 0
//
variant id: G6C A37C G67C
category label: class 0
//
variant id: C29U A42U A45C
category label: class 0
//
variant id: G25A A57G
category label: class 1
//
variant id: U19C A21U
category label: class 1
//
variant id: G12C U26A U35A
category label: class 0
//
variant id: C4A U7A U13A C30A U64C
category label: class 0
//
variant id: C22A C29U C60A C66U
category label: class 0
//
variant id: U3C G18A U53A U54G
category label: class 0
//
variant id: C5G C49G G51A
category label: class 0
//
variant id: U7C U47G
category label: class 0
//
variant id: U47G G52A C61A G67C
category label: class 0
//
variant id: U19C A20C C24A
category label: class 0
//
variant id: U19C G38A
category label: class 1
//
variant id: G38C G48A C61A G67C
category label: class 0
//
variant id: C24U A45U A65G
category label: class 1
//
variant id: U47C G51A
category label: class 1
//
variant id: U28A G48C A69U A70U
category label: class 0
//
variant id: C4U U7A A36U
category label: class 0
//
variant id: C5U C22G C24A A57C
category label: class 0
//
variant id: G18C G23A C24U C61U
category label: class 0
//
variant id: A40U A70G
category label: class 1
//
variant id: A43U C60G C61U
category label: class 0
//
variant id: C5G A14U G68C
category label: class 0
//
variant id: C5U C22A G25A C66U
category label: class 0
//
variant id: C5G G17C A45G C46U
category label: class 0
//
variant id: G23C A37C
category label: class 1
//
variant id: C5G G25C C46G U64G
category label: class 0
//
variant id: U3A C46G A70C
category label: class 1
